IC50 by entry:
target: Alpha-glucosidase (Saccharomyces cerevisiae S288c, UniProt P53341+P38158+P07265); experiment: Inhibition of Saccharomyces cerevisiae alpha-glucosidase using p-nitrophenyl-alpha-D-glucopyranoside as substrate measured after 20 mins by spectrophotometer; type: protein assay

- Smiles representation: "Cc1ccccc1NC(=O)CSc1nc2ccccc2cc1-c1nc(-c2ccccc2)c(-c2ccccc2)[nH]1"
  System name: "Alpha-glucosidase (Saccharomyces cerevisiae S288c, UniProt P53341+P38158+P07265)"
  IC50 (µM): 1.5
- Smiles representation: "O=C(CSc1nc2ccccc2cc1-c1nc(-c2ccccc2)c(-c2ccccc2)[nH]1)Nc1cccc(Cl)c1Cl"
  System name: "Alpha-glucosidase (Saccharomyces cerevisiae S288c, UniProt P53341+P38158+P07265)"
  IC50 (µM): 1.58
- Smiles representation: "O=C(CSc1nc2ccccc2cc1-c1nc(-c2ccccc2)c(-c2ccccc2)[nH]1)Nc1ccc(Cl)cc1"
  System name: "Alpha-glucosidase (Saccharomyces cerevisiae S288c, UniProt P53341+P38158+P07265)"
  IC50 (µM): 1.8
- Smiles representation: "O=C(CSc1nc2ccccc2cc1-c1nc(-c2ccccc2)c(-c2ccccc2)[nH]1)Nc1ccc(F)cc1"
  System name: "Alpha-glucosidase (Saccharomyces cerevisiae S288c, UniProt P53341+P38158+P07265)"
  IC50 (µM): 0.18
- Smiles representation: "Cc1cccc(C)c1NC(=O)CSc1nc2ccccc2cc1-c1nc(-c2ccccc2)c(-c2ccccc2)[nH]1"
  System name: "Alpha-glucosidase (Saccharomyces cerevisiae S288c, UniProt P53341+P38158+P07265)"
  IC50 (µM): 1.25
- Smiles representation: "O=C(CSc1nc2ccccc2cc1-c1nc(-c2ccccc2)c(-c2ccccc2)[nH]1)Nc1ccccc1F"
  System name: "Alpha-glucosidase (Saccharomyces cerevisiae S288c, UniProt P53341+P38158+P07265)"
  IC50 (µM): 2.02
- Smiles representation: "Cc1cc([N+](=O)[O-])ccc1NC(=O)CSc1nc2ccccc2cc1-c1nc(-c2ccccc2)c(-c2ccccc2)[nH]1"
  System name: "Alpha-glucosidase (Saccharomyces cerevisiae S288c, UniProt P53341+P38158+P07265)"
  IC50 (µM): 1.53
- Smiles representation: "O=C(CSc1nc2ccccc2cc1-c1nc(-c2ccccc2)c(-c2ccccc2)[nH]1)Nc1cccc(Cl)c1"
  System name: "Alpha-glucosidase (Saccharomyces cerevisiae S288c, UniProt P53341+P38158+P07265)"
  IC50 (µM): 1.85
- Smiles representation: "O=C(CSc1nc2ccccc2cc1-c1nc(-c2ccccc2)c(-c2ccccc2)[nH]1)Nc1ccccc1"
  System name: "Alpha-glucosidase (Saccharomyces cerevisiae S288c, UniProt P53341+P38158+P07265)"
  IC50 (µM): 2.1
- Smiles representation: "Cc1c(NC(=O)CSc2nc3ccccc3cc2-c2nc(-c3ccccc3)c(-c3ccccc3)[nH]2)cccc1[N+](=O)[O-]"
  System name: "Alpha-glucosidase (Saccharomyces cerevisiae S288c, UniProt P53341+P38158+P07265)"
  IC50 (µM): 1.02
- Smiles representation: "O=C(CSc1nc2ccccc2cc1-c1nc(-c2ccccc2)c(-c2ccccc2)[nH]1)NCc1ccccc1"
  System name: "Alpha-glucosidase (Saccharomyces cerevisiae S288c, UniProt P53341+P38158+P07265)"
  IC50 (µM): 1.79
- Smiles representation: "O=C(CSc1nc2ccccc2cc1-c1nc(-c2ccccc2)c(-c2ccccc2)[nH]1)NCc1ccc(F)cc1"
  System name: "Alpha-glucosidase (Saccharomyces cerevisiae S288c, UniProt P53341+P38158+P07265)"
  IC50 (µM): 1.26
- Smiles representation: "Cc1ccc(NC(=O)CSc2nc3ccccc3cc2-c2nc(-c3ccccc3)c(-c3ccccc3)[nH]2)cc1"
  System name: "Alpha-glucosidase (Saccharomyces cerevisiae S288c, UniProt P53341+P38158+P07265)"
  IC50 (µM): 1.77
- Smiles representation: "CCc1ccc(NC(=O)CSc2nc3ccccc3cc2-c2nc(-c3ccccc3)c(-c3ccccc3)[nH]2)cc1"
  System name: "Alpha-glucosidase (Saccharomyces cerevisiae S288c, UniProt P53341+P38158+P07265)"
  IC50 (µM): 0.96
- Smiles representation: "Cc1ccc(CNC(=O)CSc2nc3ccccc3cc2-c2nc(-c3ccccc3)c(-c3ccccc3)[nH]2)cc1"
  System name: "Alpha-glucosidase (Saccharomyces cerevisiae S288c, UniProt P53341+P38158+P07265)"
  IC50 (µM): 1.48
- Smiles representation: "O=C(CSc1nc2ccccc2cc1-c1nc(-c2ccccc2)c(-c2ccccc2)[nH]1)Nc1ccccc1Cl"
  System name: "Alpha-glucosidase (Saccharomyces cerevisiae S288c, UniProt P53341+P38158+P07265)"
  IC50 (µM): 1.95
- Smiles representation: "O=C(CSc1nc2ccccc2cc1-c1nc(-c2ccccc2)c(-c2ccccc2)[nH]1)Nc1ccc2ccccc2c1"
  System name: "Alpha-glucosidase (Saccharomyces cerevisiae S288c, UniProt P53341+P38158+P07265)"
  IC50 (µM): 1.22
- Smiles representation: "Cc1cccc(NC(=O)CSc2nc3ccccc3cc2-c2nc(-c3ccccc3)c(-c3ccccc3)[nH]2)c1C"
  System name: "Alpha-glucosidase (Saccharomyces cerevisiae S288c, UniProt P53341+P38158+P07265)"
  IC50 (µM): 2.05
- Smiles representation: "O=C(CSc1nc2ccccc2cc1-c1nc(-c2ccccc2)c(-c2ccccc2)[nH]1)Nc1ccc(Br)cc1"
  System name: "Alpha-glucosidase (Saccharomyces cerevisiae S288c, UniProt P53341+P38158+P07265)"
  IC50 (µM): 1.98
